Measured values drawn from ChEMBL document CHEMBL4011581 for this set.

Biological target: Bile salt export pump (Homo sapiens)
Test: Inhibition of human BSEP expressed in fall armyworm sf9 cell membrane vesicles assessed as reduction in ATP-dependent [3H]-taurocholic acid uptake preincubated for 30 mins prior to [3H]-taurocholic acid addition by liquid scintillation counting
Assay type: ADME
Quantity Name: pIC50
Worth noting: pIC50 values are minus log10 of concentrations stated in mol/L.

Q: Could you share what pIC50 was measured for CC(C)C(=O)Nc1ccc([N+](=O)[O-])c(C(F)(F)F)c1 [FLUTAMIDE] , tested on Bile salt export pump (Homo sapiens)?
Result: 4.30

* * *

Target: Bile salt export pump (Homo sapiens, UniProt O95342)
Sequence (O95342 whole entry): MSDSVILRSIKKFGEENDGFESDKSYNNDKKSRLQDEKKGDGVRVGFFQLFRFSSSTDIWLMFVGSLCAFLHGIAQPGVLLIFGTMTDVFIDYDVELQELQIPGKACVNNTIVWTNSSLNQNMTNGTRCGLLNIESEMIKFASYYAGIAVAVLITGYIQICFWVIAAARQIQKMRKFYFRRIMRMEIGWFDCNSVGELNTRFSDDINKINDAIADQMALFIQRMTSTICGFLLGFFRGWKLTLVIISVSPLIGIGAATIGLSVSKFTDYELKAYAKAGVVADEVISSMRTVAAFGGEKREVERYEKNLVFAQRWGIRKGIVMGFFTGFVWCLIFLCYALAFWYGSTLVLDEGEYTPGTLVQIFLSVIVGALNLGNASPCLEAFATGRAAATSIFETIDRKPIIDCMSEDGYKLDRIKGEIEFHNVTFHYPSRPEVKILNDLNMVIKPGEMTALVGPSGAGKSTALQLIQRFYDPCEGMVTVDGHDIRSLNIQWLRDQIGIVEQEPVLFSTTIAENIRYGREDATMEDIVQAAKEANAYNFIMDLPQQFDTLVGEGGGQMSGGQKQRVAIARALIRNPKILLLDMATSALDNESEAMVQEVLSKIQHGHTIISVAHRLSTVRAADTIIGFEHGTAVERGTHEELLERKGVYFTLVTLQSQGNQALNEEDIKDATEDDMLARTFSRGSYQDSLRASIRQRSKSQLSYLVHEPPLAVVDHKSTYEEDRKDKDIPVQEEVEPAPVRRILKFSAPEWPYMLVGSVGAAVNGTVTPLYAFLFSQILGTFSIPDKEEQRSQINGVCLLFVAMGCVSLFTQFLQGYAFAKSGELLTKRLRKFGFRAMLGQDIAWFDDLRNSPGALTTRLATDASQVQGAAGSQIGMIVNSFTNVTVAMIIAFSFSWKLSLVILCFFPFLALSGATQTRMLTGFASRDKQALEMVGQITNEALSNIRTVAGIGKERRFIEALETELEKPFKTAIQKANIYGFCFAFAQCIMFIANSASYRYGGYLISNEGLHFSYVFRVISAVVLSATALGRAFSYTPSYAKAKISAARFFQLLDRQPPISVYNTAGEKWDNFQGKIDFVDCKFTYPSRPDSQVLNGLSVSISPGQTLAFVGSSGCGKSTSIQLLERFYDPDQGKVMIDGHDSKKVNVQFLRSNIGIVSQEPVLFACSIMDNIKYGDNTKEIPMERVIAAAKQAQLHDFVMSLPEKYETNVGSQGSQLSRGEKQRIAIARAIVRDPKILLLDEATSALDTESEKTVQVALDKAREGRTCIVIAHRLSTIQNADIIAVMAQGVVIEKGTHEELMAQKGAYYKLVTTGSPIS
Assay: Inhibition of human BSEP expressed in fall armyworm sf9 cell plasma membrane vesicles assessed as reduction in vesicle-associated [3H]-taurocholate transport preincubated for 10 mins prior to ATP addition measured after 15 mins in presence of [3H]-taurocholate by topcount based membrane vesicle transport assay
Format: ADME
Measured IC50 by item

Sample answers from the record:
Q: So what does the record say about IC50 for CC(C)(C)NCC(O)COc1cccc2c1CC(O)C(O)C2 (configuration not stated) ?
Result: > 135 µM

Q: And "C[C@H]1C[C@@H]2[C@H]([C@@H](O)C[C@@]3(C)[C@H]2CC[C@]3(O)C(=O)CO)[C@@]2(C)C=CC(=O)C=C12" ?
Result: > 135 µM

Q: And "CCC1(c2ccccc2)C(=O)NC(=O)NC1=O" ?
Result: > 135 µM

---
Q: So what does the record say about IC50 for CCCNC(=O)NS(=O)(=O)c1ccc(Cl)cc1 [CHLORPROPAMIDE] ?
Result: > 135 µM

Q: And "CC[C@]1(O)C[C@@H]2CN(CCc3c([nH]c4ccccc34)[C@@](C(=O)OC)(c3cc4c(cc3OC)N(C)[C@H]3[C@@](O)(C(=O)OC)[C@H](OC(C)=O)[C@]5(CC)C=CCN6CC[C@]43[C@@H]65)C2)C1" ?
Result: > 135 µM

Q: And "NC[C@H]1O[C@H](O[C@H]2[C@H](O)[C@@H](O[C@H]3O[C@H](CO)[C@@H](O)[C@H](N)[C@H]3O)[C@H](N)C[C@@H]2N)[C@H](O)[C@@H](O)[C@@H]1O" ?
Result: > 135 µM

Q: And CN(C)C(=O)CCSC(SCCC(=O)O)c1cccc(/C=C/c2ccc3ccc(Cl)cc3n2)c1 (configuration not stated) ?
Result: 3.5 µM

Q: And "O=C(c1ccc(F)cc1)C1CCN(CCn2c(=O)[nH]c3ccccc3c2=O)CC1" ?
Result: > 135 µM

* * *

Target: Bile salt export pump (Homo sapiens)
Test: Inhibition of BSEP in human hepatocytes assessed as reduction in biliary excretion of [3H]-taurocholate in cell lysates after 15 mins by liquid scintillation counting
Assay type: ADME, cell-based, Lysate
Quantity Name: pIC50
Worth noting: pIC50 values are minus log10 of concentrations stated in mol/L.

Q: So what does the record say about pIC50 for CC(C)C(=O)Nc1ccc([N+](=O)[O-])c(C(F)(F)F)c1 [FLUTAMIDE] ?
Result: 4.12

* * *

Measured pIC50 by item
Target: UniProt:O95342
Assay: Inhibition of human BSEP expressed in fall armyworm sf9 cell plasma membrane vesicles assessed as reduction in vesicle-associated [3H]-taurocholate transport preincubated for 10 mins prior to ATP addition measured after 15 mins in presence of [3H]-taurocholate by topcount based membrane vesicle transport assay
Assay type: ADME
pIC50: −log10 of the molar value.

Sample answers from the record:
Q: So what does the record say about pIC50 for "Cc1cccc(Nc2cc(Cl)nc(SCC(=O)O)n2)c1C" ?
Result: 3.98 to 4.12

Q: And COc1ccc(C(CN(C)C)C2(O)CCCCC2)cc1 (centres undefined) ?
Result: < 3.87

Q: And "C[C@H]1C[C@H]2[C@@H]3CCC4=CC(=O)C=C[C@]4(C)[C@@]3(F)[C@@H](O)C[C@]2(C)[C@@]1(O)C(=O)CO" ?
Result: < 3.87

Q: And "CN1CCc2cccc3c2[C@H]1Cc1ccc(O)c(O)c1-3" ?
Result: < 3.87

Q: And Cc1cc(=O)n(-c2ccccc2)n1C [ANTIPYRINE] ?
Result: < 3.87

---
Q: So what does the record say about pIC50 for CC(C)OC(=O)C(C)(C)Oc1ccc(C(=O)c2ccc(Cl)cc2)cc1 [FENOFIBRATE] ?
Result: 4.82

Q: And "CNCCCN1c2ccccc2CCc2ccccc21" ?
Result: < 3.87

Q: And CCCCNC(=O)NS(=O)(=O)c1ccc(C)cc1 [TOLBUTAMIDE] ?
Result: < 3.87

Q: And CC1=C(CC(=O)O)c2cc(F)ccc2/C1=C\c1ccc([S+](C)[O-])cc1 (centres undefined) ?
Result: < 3.87

Q: And "COc1ccc2c3c1O[C@H]1C[C@@H](O)C=C[C@@]31CCN(C)C2" ?
Result: < 3.87

Q: And "Cc1onc(-c2c(Cl)cccc2Cl)c1C(=O)N[C@@H]1C(=O)N2[C@@H]1SC(C)(C)[C@@H]2C(=O)O" ?
Result: 4.22 to 4.35

Q: And "CCN(CC)CCOc1ccc2c(c1)C(=O)c1cc(OCCN(CC)CC)ccc1-2" ?
Result: < 3.87

Q: And "Cc1ccnc2c1NC(=O)c1cccnc1N2C1CC1" ?
Result: < 3.87

Q: And "C[C@@H]1C[C@H]2[C@@H]3CCC4=CC(=O)C=C[C@]4(C)[C@@]3(F)[C@@H](O)C[C@]2(C)[C@@]1(O)C(=O)CO" ?
Result: < 3.87

Q: And "Nc1nc(O)c2ncn(COC(CO)CO)c2n1" ?
Result: < 3.87

Q: And "S=P(N1CC1)(N1CC1)N1CC1" ?
Result: < 3.87

Q: And "CC(C)/N=c1\cc2n(-c3ccc(Cl)cc3)c3ccccc3nc-2cc1Nc1ccc(Cl)cc1" ?
Result: 4.89

Q: And "[H]/N=C(/N)N/C(=N/[H])NCCc1ccccc1" ?
Result: < 3.87

Q: And "CC(=O)Nc1ccc(O)cc1" ?
Result: < 3.87
